Listed molecules paired with reported melting point

1. CN1C(=O)[C@@H](CN2CCCCC2)C[C@H]1c1ccc(-c2cccc(Cl)c2)s1.Cl [Example E9] = 162 to 163 °C

Input line: Name the reported melting point value associated with the molecule CC(=O)Nc1ccccc1C#C[C@H]1C[C@@H](CN2CCCCC2)C(=O)N1C.Cl
Output line: 135 to 140 °C

Input line: Name the reported melting point value associated with the molecule CN1C(=O)[C@@H](CN2CCCCC2)C[C@H]1c1cnc(-c2sccc2Cl)s1.Cl [Example F4]
Output line: 207 to 210 °C

###

quantity: melting point

1. CN1C(=O)[C@@H](CN2CCCCC2)C[C@H]1c1ccc(-c2ccccc2Cl)cc1.Cl [Example H3] = 130 to 135 °C
2. CN1C(=O)[C@@H](CN2CCCCC2)C[C@H]1C#Cc1ccccc1.Cl [Example D4] = 199 to 203 °C
3. CN1C(=O)[C@@H](CN2CCCCC2)C[C@H]1c1cnc(-c2ccccc2Cl)s1.Cl [Example F2] = 171 to 176 °C

Input line: Name the reported melting point value associated with the molecule CN1C(=O)C(CN2CCCCC2)CC1C1CC1c1ccccc1Cl (centres unmarked)
Output line: 87 to 90 °C

Input line: Name the reported melting point value associated with the molecule CN1C(=O)[C@@H](CN2CCCCC2)C[C@H]1C#Cc1ccccc1.Cl [Example D3]
Output line: 197 to 201 °C

Input line: Name the reported melting point value associated with the molecule Cc1cc(C)cc([C@@H]2C[C@H](CN3CCCCC3)C(=O)N2C)c1.Cl [Example A4]
Output line: 172 to 180 °C
